The following compounds are listed with their measured TGI values.
Test system: SF-295 CNS
assay details: NCI tumour cell line growth inhibition, 48 h
Give the quantity in µM, number only.

Record excerpt, results attached:
compound: CC1(C)CCCCC1/C=C/C(CC(O)(C(F)(F)F)C(F)(F)F)=N\Nc1ccc([N+](=O)[O-])cc1[N+](=O)[O-] (stereo not given)
value reported: 9.01
--
compound: Cc1ccc2[nH]c3c(C)c4cc[n+](C)cc4c(C)c3c2c1
value reported: 4.19
--
compound: O=C(NCCCNc1cc(-c2cn(-c3ccccc3)nc2-c2cccc(O)c2)ccn1)c1ccc(F)cc1
value reported: 4.58

From here, focus on the item given below.
So what's the measured TGI for this one? CC(C)c1ccc2c(c1)CCC1C(C)(CN)CCCC21C (stereo not given)
3.34
